Published IC50 for High affinity nerve growth factor receptor (Homo sapiens), assembled from different documents, is shown next.
READOUT_LABEL: IC50

| TEST_SMILES | READING |
| --- | --- |
| COCCN1C[C@@H](NC(=O)Nc2c(C)c(-c3cnn(C)c3)nn2-c2cncc(F)c2)[C@H](c2ccc(F)c(F)c2)C1 | < 100 nM |
| COCCN1C[C@@H](NC(=O)Nc2c(C)c(-c3ccccc3)nn2-c2ccccc2)[C@H](c2cc(F)cc(F)c2)C1 | < 100 nM |
| CCCS(=O)(=O)Nc1cccc(C(=O)c2c[nH]c3ncc(-c4cnc(OC)nc4)cc23)c1F | ≤ 10000 nM |
| NC(=O)c1ccc(-c2cc(O[C@@H]3CCOC3)c3c(N)n[nH]c3c2)cc1N1CCN(c2cccnc2)CC1 | 8.06 nM |
